Biological target: Short transient receptor potential channel 4 (Mus musculus, UniProt Q9QUQ5)
Sequence (Q9QUQ5 whole entry): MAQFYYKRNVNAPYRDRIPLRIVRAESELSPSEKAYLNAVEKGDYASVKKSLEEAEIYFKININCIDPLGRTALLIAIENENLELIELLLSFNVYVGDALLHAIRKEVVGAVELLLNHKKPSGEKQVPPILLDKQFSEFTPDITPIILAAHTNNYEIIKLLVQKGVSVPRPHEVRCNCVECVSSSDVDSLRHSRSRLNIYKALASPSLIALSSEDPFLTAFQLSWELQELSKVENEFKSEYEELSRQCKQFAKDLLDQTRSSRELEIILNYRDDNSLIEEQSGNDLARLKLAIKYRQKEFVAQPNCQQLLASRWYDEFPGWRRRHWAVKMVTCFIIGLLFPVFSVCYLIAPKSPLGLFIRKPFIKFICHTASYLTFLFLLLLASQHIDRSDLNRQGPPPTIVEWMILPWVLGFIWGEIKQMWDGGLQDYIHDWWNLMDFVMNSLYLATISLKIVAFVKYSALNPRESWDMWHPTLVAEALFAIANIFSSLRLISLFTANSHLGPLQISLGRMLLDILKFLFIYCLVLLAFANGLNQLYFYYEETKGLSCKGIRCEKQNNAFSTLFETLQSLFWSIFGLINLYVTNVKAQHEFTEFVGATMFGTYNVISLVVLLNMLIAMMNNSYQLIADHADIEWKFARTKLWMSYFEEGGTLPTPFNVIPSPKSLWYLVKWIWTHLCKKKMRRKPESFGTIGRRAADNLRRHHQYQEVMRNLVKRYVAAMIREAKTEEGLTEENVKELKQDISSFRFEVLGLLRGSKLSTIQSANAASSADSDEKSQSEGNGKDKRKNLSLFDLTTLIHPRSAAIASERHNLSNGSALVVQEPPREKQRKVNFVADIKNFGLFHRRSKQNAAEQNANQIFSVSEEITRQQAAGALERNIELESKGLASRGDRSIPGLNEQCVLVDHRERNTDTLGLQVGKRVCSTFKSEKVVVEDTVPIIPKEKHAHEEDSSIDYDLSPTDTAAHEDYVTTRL
Experiment: mouse TRPC4 channel activators, dose response, cell-based, HEK293 TRPC4/mu-opioid, Fluo-4 calcium (AID 434937)
Assay type: functional
The source made the active and inactive calls. No rule for the calls is given here.
Outcome measure: EC50

Cc1ccn(CC(=O)NC2CCCN(Cc3ccc(CC(C)C)cc3)C2)n1 (centres undefined): 1.68 µM (active)
Cc1cc(Cl)cc(C)c1OCCCCn1ccnc1: 3.76 µM (active)
COc1ccc(C(=O)C2CCCN(Cc3ccc(Sc4nncn4C)o3)C2)cc1F (centres undefined): 3.35 µM (active)

# context switch: different compound, same EC50
EC50 for O=C(CCc1ccccc1)NNC(=S)NC(=O)c1ccc(Cl)cc1 ?
5.31 µM (active)
